- test-system: hOX2R (Homo sapiens)
- Construct: expressed in transfected cells; host or cells: CHO cells (G418 selection)
- method-summary: hOX2R IPone assay (orexin receptor agonism)
- Format: cell-based
- protocol-conditions: maximal activation, IPone readout
readout-label: hOX2R_Ipone max %act (%)
Numbers only, in %.

CCC(CC)CC1CCCCCOc2nc(cn3ccnc23)-c2cc(ncc2OC)[C@@H](C)N(CC)C(=O)N1 (single isomer, unassigned) [Example 64B]: 99.8
CCN1C(=O)N[C@@H](CCC(C)(F)F)CCCCCOc2nc(c(C)n3ccnc23)-c2cc(ccn2)[C@H]1C: 101.4
CCN1C(=O)N[C@@H](CCC(F)(F)F)CCOCCOc2cc(cn3ncnc23)-c2cc(ncc2OC)[C@H]1C: 103
CCN1C(=O)N[C@@H](CCC(F)(F)F)CCCCCOc2nc(cn3ccnc23)-c2cc(ncn2)[C@H]1C [Example 112A]: 101.2

Please look at the items below and tell me hOX2R_Ipone max %act for each one, in order.
1. CCN1C(=O)NC(c2cscn2)CCCCCOc2nc(cn3ccnc23)-c2cccc(c2)[C@H]1C (single isomer, unassigned) [Example 19B]
2. CCN1C(=O)NC(c2ncnn2C)CCCCCOc2nc(cn3ccnc23)-c2cc(ncc2OC)[C@H]1C (stereo partly shown)
3. CCN1C(=O)N[C@@H](CCC(F)(F)F)CCCCOc2nc(cn3cc(C)nc23)-c2cc(ncc2OC)C1C(F)(F)F (single isomer, unassigned) [Example 36A]
4. CCN1C(=O)NCCCCCOc2nc(cn3ccnc23)-c2cccc(c2)[C@H]1C
5. CCN1C(=O)N[C@@H](CCC(F)(F)F)CCCCCOc2nc(cn3ccnc23)-c2cc(nc(C)n2)[C@H]1C [Example 119B]
6. CCN1C(=O)NC(CCOC(F)(F)F)CCCCCOc2nc(cn3ccnc23)-c2cc(ncc2OC)[C@H]1C (single isomer, unassigned) [Example 73B]
7. CCN1C(=O)N[C@@H](CCC(F)(F)F)CCCCCOc2nc(cn3ncnc23)-c2nc(ncc2OC)[C@H]1C
8. CCN1Cc2cnc(OC)c(c2)-c2cn3ccnc3c(n2)OCCCCC[C@H](CCC(F)(F)F)NC1=O

1: 94.4; 2: 102.6; 3: 101; 4: 74.7; 5: 99.9; 6: 99.6; 7: 102.4; 8: 99.5

For hOX2R (Homo sapiens), provide hOX2R_Ipone max %act of CCN1C(=O)N[C@@H](CCC(F)(F)F)CCCCOc2nc(cn3ncnc23)-c2cc(ncc2OC)C1C(F)(F)F (single isomer, unassigned) [Example 34B] please.
101.1

====

- test-system: hOX2R (Homo sapiens, UniProt O43614)
- method-summary: hOX2R IPone assay (orexin receptor agonism)
- protocol-conditions: orexin receptor agonist, IPone readout; read-out: hOX2R_IPone EC50
pEC50: −log10 of the molar value.
Label 1.0 for high-side pEC50 (at or above 8) and 0.0 for low-side pEC50 (below it).

CCN1C(=O)NC(CCOC)CCCCCOc2nc(cn3ccnc23)-c2cc(ncc2OC)[C@H]1C (single isomer, unassigned) [Example 56B]: 1.0
CCN1C(=O)NC(CC2CCCC2)CCCCCOc2nc(cn3ccnc23)-c2cc(ncc2OC)[C@H]1C (single isomer, unassigned) [Example 65B]: 1.0
CCN1C(=O)N[C@@H](c2nccnc2C)CCCCCOc2nc(cn3ccnc23)-c2cc(ncc2OC)[C@H]1C: 1.0
CCN1C(=O)N[C@@H](CCC(F)(F)F)CCC(O)CCOc2nc(cn3ccnc23)-c2cc(cnc2C)[C@H]1C (single isomer, unassigned): 1.0

Next molecule, please.
Decide: pEC50 of CCN1C(=O)NCCCCCCOc2nc(cn3ccnc23)-c2cccc(c2)[C@H]1C >= 8?
0.0

====

- test-system: hOX2R (Homo sapiens)
- method-summary: hOX2R IPone assay (orexin receptor agonism)
- protocol-conditions: orexin receptor agonist, IPone readout; read-out: hOX2R_IPone EC50
Rule: EC50 below 6 nM gives Y. Equal to or above 6 nM gives N.

Would you please look over these solved cases?
CCN1C(=O)N[C@@H](CCC(F)(F)F)C/C=C\COc2nc(cn3ccnc23)-c2cccc(c2)[C@H]1C [Example 31]: N
CCN1C(=O)NCc2nc(no2)CCOc2nc(cn3ccnc23)-c2cccc(c2)[C@H]1C [Example 23]: N
CCN1C(=O)N[C@@H](CCC(F)(F)F)CCCCCOc2nc(cc3ccnn23)-c2cc(ncc2OC)C1C (single isomer, unassigned) [Example 88B]: Y
CCN1C(=O)NCCC2CCC(C2)Oc2nc(cn3ccnc23)-c2cccc(c2)[C@H]1C (single isomer, unassigned) [Example 1A]: N
CCN1C(=O)NC(CCC(F)(F)F)C(C)/C=C\COc2nc(cn3ccnc23)-c2cccc(c2)[C@H]1C (single isomer, unassigned) [Example 41B]: N

Bench note: check whether CCN1C(=O)NCCCC(C)(C)COc2nc(cn3ccnc23)-c2cccc(c2)[C@H]1C [Example 13] shows EC50 below 6 nM
N

Bench note: check whether CCN1C(=O)N[C@@H](CCC(F)(F)F)CCCCCOc2nc(cn3ccnc23)-c2cc(nc(C)n2)[C@H]1C [Example 119B] shows EC50 below 6 nM
Y

Bench note: check whether CCN1C(=O)N[C@@H](CCC(F)(F)F)CCCCCOc2nc(cn3ncnc23)-c2cc(ncc2OC)[C@H]1C [Example 82] shows EC50 below 6 nM
Y

Bench note: check whether CCN1Cc2cc(ccn2)-c2cn3ccnc3c(n2)OCCCCC[C@H](CCC(F)(F)F)NC1=O [Example 120] shows EC50 below 6 nM
N

Bench note: check whether CCN1C(=O)N[C@@H](CCC(F)F)CCOCCOc2nc(nn3ccnc23)-c2cc(ncc2F)[C@H]1C [Example 127] shows EC50 below 6 nM
Y

Bench note: check whether CCN1C(=O)N[C@@H](CCC(F)(F)F)CCCCCOc2nc(nn3ccnc23)-c2cccc(c2)[C@H]1C [Example 87] shows EC50 below 6 nM
Y

Bench note: check whether CCN1C(=O)N[C@@H](CCC(F)(F)F)CCCCCOc2nc(cn3ccnc23)-c2nc(ncc2C)[C@H]1C [Example 93B] shows EC50 below 6 nM
Y

====

Could you please report measured hOX2R_Ipone max %act for the items listed next?
- test-system: hOX2R (Homo sapiens, UniProt O43614)
- Construct: expressed in transfected cells; host or cells: CHO cells (G418 selection)
- method-summary: hOX2R IPone assay (orexin receptor agonism)
- Type: cell-based
- protocol-conditions: maximal activation, IPone readout
Numbers only, in %.

Consider the worked cases shown below.
CCN1C(=O)N[C@@H](CCC(F)(F)F)CCCCCOc2nc(cn3ccnc23)-c2nc(co2)C1C (single isomer, unassigned) [Example 105B]: 100
CCN1C(=O)NC(C2CC(F)(F)C2)CCCCCOc2nc(cn3ccnc23)-c2cc(ncc2OC)[C@H]1C (some centres unmarked): 101.4
CCN1C(=O)NC(CCC(F)F)CCCCCOc2nc(cn3ccnc23)-c2cc(ncc2C2CC2)[C@H]1C (some centres unmarked): 105.4
CCN1C(=O)N[C@@H](CCC(F)(F)F)CCCCCOc2nc(cn3ccnc23)C2=NC=C(S2)C1C (single isomer, unassigned) [Example 94B]: 100.3
CCC(CC)CC1CCCCCOc2nc(cn3ccnc23)-c2cc(ncc2OC)[C@@H](C)N(CC)C(=O)N1 (single isomer, unassigned) [Example 64A]: 102.7

Please look at the items below and tell me hOX2R_Ipone max %act for each one, in order.
1. CCN1C(=O)NC(CCC(C)F)CCCCCOc2nc(cn3ccnc23)-c2cc(ncc2OC)[C@H]1C (single isomer, unassigned) [Example 72A]
2. CCN1C(=O)N[C@@H](CCC(C)(F)F)CCOCCOc2nc(cc3ncnn23)-c2cc(ncc2OC)[C@H]1C

[99.5, 111.8]

====

- test-system: hOX2R (Homo sapiens, UniProt O43614)
- Construct: expressed in transfected cells; host or cells: CHO cells (G418 selection)
- Sequence (O43614 1-444): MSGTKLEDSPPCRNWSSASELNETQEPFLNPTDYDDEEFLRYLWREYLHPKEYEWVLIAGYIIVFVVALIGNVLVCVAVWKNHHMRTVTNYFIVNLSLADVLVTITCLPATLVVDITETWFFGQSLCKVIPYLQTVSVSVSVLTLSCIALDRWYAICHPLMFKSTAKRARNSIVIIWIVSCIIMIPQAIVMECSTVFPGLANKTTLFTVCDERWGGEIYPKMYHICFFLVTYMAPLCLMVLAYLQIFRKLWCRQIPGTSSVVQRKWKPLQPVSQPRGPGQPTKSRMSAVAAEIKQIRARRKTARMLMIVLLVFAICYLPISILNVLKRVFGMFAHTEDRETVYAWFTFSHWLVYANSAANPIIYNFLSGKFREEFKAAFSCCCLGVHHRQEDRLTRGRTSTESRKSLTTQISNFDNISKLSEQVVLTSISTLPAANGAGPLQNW
- method-summary: hOX2R IPone assay (orexin receptor agonism)
- Format: cell-based
- protocol-conditions: maximal activation, IPone readout
readout-label: hOX2R_Ipone max %act (%)
Give bare numbers, in %.

Consider the worked cases shown below.
CCN1C(=O)NC(CCOC)CCCCCOc2nc(cn3ccnc23)-c2cc(ncc2OC)[C@H]1C (single isomer, unassigned) [Example 56B]: 101
CCN1C(=O)NC(C2CC2)CCCCCOc2nc(cn3ccnc23)-c2cc(ncc2OC)[C@H]1C (single isomer, unassigned) [Example 57A]: 100.7
CCN1C(=O)NC(COC(C)C)CCCCCOc2nc(cn3ccnc23)-c2cc(ncc2OC)[C@H]1C (stereo partly shown): 102.1
CCN1C(=O)N[C@@H](C)/C=C/CC2(CCOCC2)COc2nc(cn3ccnc23)-c2cc(ncc2OC)[C@H]1C: 61.55
CCN1C(=O)NC(CC(C)(F)F)CCCCCOc2cn3ccnc3c(n2)-c2cc(ncc2OC)C1C (stereo not shown): 108.6
CCN1C(=O)N[C@@H](CCC(F)(F)F)CCCCCOc2nc(cn3ccnc23)-c2cc(C)nc(c2)[C@H]1C [Example 107B]: 100.1
CCN1C(=O)NC(CCC(C)F)CCCCCOc2nc(cn3ccnc23)-c2cc(ncc2OC)[C@H]1C (single isomer, unassigned) [Example 72B]: 102.7
CCN1C(=O)N[C@@H](CCC(F)(F)F)CCCCOc2nc(cn3ncnc23)-c2cc(ncc2OC)C1C(F)(F)F (single isomer, unassigned) [Example 34A]: 99.9
CCN1C(=O)N[C@@H](CCC(F)(F)F)CCCCCOc2nc(cn3cc(C)nc23)-c2cc(nc3ccoc23)C1C (single isomer, unassigned) [Example 75A]: 96.6
CCN1C(=O)NC(CC(F)(F)CC)CCOCCOc2cn3ncnc3c(n2)-c2cc(ncc2C)C1C (stereo not shown): 104.4

Please look at the items below and tell me hOX2R_Ipone max %act for each one, in order.
1. CCN1C(=O)NCc2nc(cs2)CCOc2nc(cn3ccnc23)-c2cccc(c2)[C@H]1C
2. CCN1C(=O)N[C@@H](CCC(F)(F)F)CCCCCOc2nc(cn3ccnc23)C2=NC=C(S2)C1C (single isomer, unassigned) [Example 94A]
3. CCN1C(=O)NC(CC2CCCC2)CCCCCOc2nc(cn3ccnc23)-c2cc(ncc2OC)[C@H]1C (single isomer, unassigned) [Example 65B]

1. 94.8
2. 97.9
3. 101.9

Just for reference, patent US12686690B2 is where these values come from.
